Where these numbers come from: paper PMC11784145

target: human ribonuclease H1 (huRNase H1) (Homo sapiens, UniProt O60930); test: Human RNase H1 inhibition, fluorescent biochemical assay; conditions: recombinant huRNase H1, RNA:DNA heteroduplex substrate
Sequence (O60930 whole entry): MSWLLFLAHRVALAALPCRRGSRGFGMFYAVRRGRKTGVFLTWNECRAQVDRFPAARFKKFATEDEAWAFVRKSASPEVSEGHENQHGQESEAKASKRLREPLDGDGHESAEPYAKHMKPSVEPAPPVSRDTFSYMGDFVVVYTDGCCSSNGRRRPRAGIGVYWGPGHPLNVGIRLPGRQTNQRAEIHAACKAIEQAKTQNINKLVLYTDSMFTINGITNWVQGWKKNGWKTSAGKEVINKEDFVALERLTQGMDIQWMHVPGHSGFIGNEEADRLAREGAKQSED
propertyLabel: pIC50
// pIC50: -log10(molar conc.)

Ask | Reported pIC50 for CC(=NOCc1cc(F)ccc1F)c1c(C)cc(=O)n(O)c1O [Compound 1810] : what is it?
Reply | 6.09

Ask | Would you kindly repeat that for CC(=NOCc1ccc(OCc2ccccc2)cc1)c1c(C)cc(=O)n(O)c1O [Compound 1738] ?
Reply | 6.25

----------
assay: Microsome stability; assay type: in vitro ADME, human; details: both sexes; human liver microsomes, 1 µM compound, 30 min, NADPH; read-out: Clearance (intrinsic clearance, Clint)
propertyLabel: microsomal CLint at 1 µM

Ask | Reported microsomal CLint at 1 µM for CC(C)c1nc(CN(C)C(=O)N[C@H](C(=O)N[C@@H](Cc2ccccc2)C[C@H](O)[C@H](Cc2ccccc2)NC(=O)OCc2cncs2)C(C)C)cs1 [Ritonavir, ritonavir, reference compound] : what is it?
Reply | 45.2 µL/min/mg
